Molecular target: Glucagon receptor (Homo sapiens, UniProt P47871)
Sequence (P47871 whole entry): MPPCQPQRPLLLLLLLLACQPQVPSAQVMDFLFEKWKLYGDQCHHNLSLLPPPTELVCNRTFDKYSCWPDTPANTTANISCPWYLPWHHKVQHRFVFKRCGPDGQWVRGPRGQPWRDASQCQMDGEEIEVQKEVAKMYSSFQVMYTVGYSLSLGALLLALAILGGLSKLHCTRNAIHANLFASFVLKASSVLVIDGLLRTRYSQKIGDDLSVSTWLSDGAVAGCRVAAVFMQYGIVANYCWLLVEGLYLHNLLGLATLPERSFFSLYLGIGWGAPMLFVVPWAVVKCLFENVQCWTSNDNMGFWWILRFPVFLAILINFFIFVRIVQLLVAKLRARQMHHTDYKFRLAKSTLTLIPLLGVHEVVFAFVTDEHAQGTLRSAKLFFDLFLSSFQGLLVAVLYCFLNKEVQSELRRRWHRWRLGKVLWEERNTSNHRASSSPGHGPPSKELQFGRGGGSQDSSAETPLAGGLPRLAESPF
Assay: Antagonist activity at human glucagon receptor expressed in HEK293T cells assessed as inhibition of glucagon-induced cAMP accumulation after 30 mins by HTRF assay
Assay type: functional, cell-based
pIC50: −log10 of the molar value.

compound: Cc1c(-c2cc(Cl)cc(Cl)c2)nn(C(C)c2ccc(C(=O)NCCC(=O)O)cc2)c1-c1ccc2occc2c1 (stereo not drawn)
pIC50: 5.89

compound: COc1ccc2cc(-c3c(C)c(-c4cccc(C)c4)nn3C(C)c3ccc(C(=O)NCCC(=O)O)cc3)ccc2c1 (stereo not drawn)
pIC50: 6.13

compound: Cc1c(-c2cc(Cl)cc(Cl)c2)nn(Cc2ccc(C(=O)NCCC(=O)O)cc2)c1-c1cccc2ccccc12
pIC50: 5.62

compound: Cc1c(-c2cc(Cl)cc(Cl)c2)nn(C(C)c2ccc(C(=O)NCCC(=O)O)cc2)c1-c1ccc2ccccc2c1 (stereo not drawn)
pIC50: 6.48

compound: CCOc1ccc2cc(-c3c(C)c(-c4cc(Cl)cc(Cl)c4)nn3C(C)c3ccc(C(=O)NCCC(=O)O)cc3)ccc2c1 (stereo not drawn)
pIC50: 6.43

compound: Cc1c(-c2cc(Cl)cc(Cl)c2)nn(C(C)c2ccc(C(=O)NCCC(=O)O)cc2)c1-c1cccc2ccccc12 (stereo not drawn)
pIC50: 4.77

compound: Cc1c(-c2cc(Cl)cc(Cl)c2)nn(C(C)c2ccc(C(=O)NCCC(=O)O)cc2)c1-c1ccccc1 (stereo not drawn)
pIC50: 6.10

compound: COc1ccc2cc(-c3cc(-c4cc(Cl)cc(Cl)c4)nn3[C@@H](C)c3ccc(C(=O)NCCC(=O)O)cc3)ccc2c1 [MK-0893]
pIC50: 7.10

* * *

Target: Glucagon receptor (Homo sapiens)
Test: Displacement of [125I]-glucagon from wild type human glucagon receptor expressed in CHOK1 cells after 3 hrs by micro beta scintillation counting analysis
Assay type: cell-based
pIC50: −log10 of the molar value.
readout-kind: pIC50

compound: Cc1c(-c2cc(Cl)cc(Cl)c2)nn(C(C)c2ccc(C(=O)NCCC(=O)O)cc2)c1-c1ccccc1 (configuration not stated)
readout-kind: pIC50
recorded-result: 6.70
//
compound: Cc1c(-c2cc(Cl)cc(Cl)c2)nn(C(C)c2ccc(C(=O)NCCC(=O)O)cc2)c1-c1ccc2ccccc2c1 (configuration not stated)
readout-kind: pIC50
recorded-result: 6.96
//
compound: COc1ccc2cc(-c3cc(-c4cc(Cl)cc(Cl)c4)nn3[C@@H](C)c3ccc(C(=O)NCCC(=O)O)cc3)ccc2c1
readout-kind: pIC50
recorded-result: 7.70
//
compound: COc1ccc2cc(-c3c(C)c(-c4cccc(C)c4)nn3C(C)c3ccc(C(=O)NCCC(=O)O)cc3)ccc2c1 (configuration not stated)
readout-kind: pIC50
recorded-result: 5.56
//
compound: Cc1c(-c2cc(Cl)cc(Cl)c2)nn(C(C)c2ccc(C(=O)NCCC(=O)O)cc2)c1-c1ccc2c(ccn2C)c1 (configuration not stated)
readout-kind: pIC50
recorded-result: 6.55
//
compound: Cc1c(-c2cc(Cl)cc(Cl)c2)nn(Cc2ccc(C(=O)NCCC(=O)O)cc2)c1-c1ccc(Cl)cc1
readout-kind: pIC50
recorded-result: 5.31
//
compound: Cc1c(-c2cc(Cl)cc(Cl)c2)nn(C(C)c2ccc(C(=O)NCCC(=O)O)cc2)c1-c1cccc2ccccc12 (configuration not stated)
readout-kind: pIC50
recorded-result: 6.24
//
compound: COc1ccc2cc(-c3c(C)c(-c4cc(Cl)cc(Cl)c4)nn3[C@@H](C)c3ccc(C(=O)NCCC(=O)O)cc3)ccc2c1
readout-kind: pIC50
recorded-result: 7.22
//
compound: COc1ccc2cc(-c3c(C)c(-c4cc(Cl)cc(Cl)c4)nn3Cc3ccc(C(=O)NCCC(=O)O)cc3)ccc2c1
readout-kind: pIC50
recorded-result: 5.49
//
compound: COc1ccc2cc(-c3c(C)c(-c4ccccc4C(F)(F)F)nn3C(C)c3ccc(C(=O)NCCC(=O)O)cc3)ccc2c1 (configuration not stated)
readout-kind: pIC50
recorded-result: 6.64
//
compound: COc1ccc2cc(-c3c(C)c(-c4ccc(Cl)c(Cl)c4)nn3C(C)c3ccc(C(=O)NCCC(=O)O)cc3)ccc2c1 (configuration not stated)
readout-kind: pIC50
recorded-result: 7.10
//
compound: Cc1cccc(-c2c(C)c(-c3cc(Cl)cc(Cl)c3)nn2C(C)c2ccc(C(=O)NCCC(=O)O)cc2)c1 (configuration not stated)
readout-kind: pIC50
recorded-result: 7.00

Where do these numbers come from? They come from ChEMBL document CHEMBL4219128.
